Substrate: CC(C)=CCC/C(C)=C/CC/C(C)=C/CO[P@@](=O)(O)OP(=O)(O)O
Test: steady-state kinetics of purified enzyme (details in supplement)
Type: biochemical, Streptomyces coelicolor
Conditions: Mg2+-dependent enzyme; assay conditions in supplement
METRIC NAME: kcat (s⁻¹)
Give the number; s⁻¹ is assumed, so skip it.

{"PROTEIN": "Gd11olS (germacradien-11-ol synthase; N-terminal domain of geosmin synthase) (Streptomyces coelicolor A3(2); V187A) (protein, N-terminal domain, residues 1-366 of geosmin synthase; codon-optimized synthetic gene in pET28a, expressed in E. coli, purified to homogeneity; tag details in supplement) MTQQPFQLPHFYLPHPARLNPHLDEARAHSTTWAREMGMLEGSGVWEQSDLEAHDYGLLCAYTHPDCDGPALSLITDWYVWVFFFDDHFLEKYKRSQDRLAGKAHLDRLPLFMPLDDAAGMPEPRNPVEAGLADLWTRTVPAMSADWRRRFAVATEHLLNESMWELSNINEGRVANPVEYIEMRRKAGGAPWSAGLVEYATAEVPAAVAGTRPLRVLMETFSDAVHLRNDLFSYQREVEDEGELSNGVLVLETFFGCTTQEAADLVNDVLTSRLHQFEHTAFTEVPAVALEKGLTPLEVAAVGAYTKGLQDWQSGGHEWHMRSSRYMNKGERPLAGWQALTGPGTSAADVGALLADAVAQRARSYT", "kcat, s⁻¹": 0.000194}

Turning now to a further protein:
In one line, give reported kcat of the entry Gd11olS (germacradien-11-ol synthase; N-terminal domain of geosmin synthase) (Streptomyces coelicolor A3(2); Q313N) (protein, N-terminal domain, residues 1-366 of geosmin synthase; codon-optimized synthetic gene in pET28a, expressed in E. coli, purified to homogeneity; tag details in supplement) MTQQPFQLPHFYLPHPARLNPHLDEARAHSTTWAREMGMLEGSGVWEQSDLEAHDYGLLCAYTHPDCDGPALSLITDWYVWVFFFDDHFLEKYKRSQDRLAGKAHLDRLPLFMPLDDAAGMPEPRNPVEAGLADLWTRTVPAMSADWRRRFAVATEHLLNESMWELSNINEGRVANPVEYIEMRRKVGGAPWSAGLVEYATAEVPAAVAGTRPLRVLMETFSDAVHLRNDLFSYQREVEDEGELSNGVLVLETFFGCTTQEAADLVNDVLTSRLHQFEHTAFTEVPAVALEKGLTPLEVAAVGAYTKGLQDWNSGGHEWHMRSSRYMNKGERPLAGWQALTGPGTSAADVGALLADAVAQRARSYT . 5.02e-05
